biological target: human c-Met (human, UniProt P08581 25-1390); test: cell-based or functional assay
Sequence (P08581 25-1390): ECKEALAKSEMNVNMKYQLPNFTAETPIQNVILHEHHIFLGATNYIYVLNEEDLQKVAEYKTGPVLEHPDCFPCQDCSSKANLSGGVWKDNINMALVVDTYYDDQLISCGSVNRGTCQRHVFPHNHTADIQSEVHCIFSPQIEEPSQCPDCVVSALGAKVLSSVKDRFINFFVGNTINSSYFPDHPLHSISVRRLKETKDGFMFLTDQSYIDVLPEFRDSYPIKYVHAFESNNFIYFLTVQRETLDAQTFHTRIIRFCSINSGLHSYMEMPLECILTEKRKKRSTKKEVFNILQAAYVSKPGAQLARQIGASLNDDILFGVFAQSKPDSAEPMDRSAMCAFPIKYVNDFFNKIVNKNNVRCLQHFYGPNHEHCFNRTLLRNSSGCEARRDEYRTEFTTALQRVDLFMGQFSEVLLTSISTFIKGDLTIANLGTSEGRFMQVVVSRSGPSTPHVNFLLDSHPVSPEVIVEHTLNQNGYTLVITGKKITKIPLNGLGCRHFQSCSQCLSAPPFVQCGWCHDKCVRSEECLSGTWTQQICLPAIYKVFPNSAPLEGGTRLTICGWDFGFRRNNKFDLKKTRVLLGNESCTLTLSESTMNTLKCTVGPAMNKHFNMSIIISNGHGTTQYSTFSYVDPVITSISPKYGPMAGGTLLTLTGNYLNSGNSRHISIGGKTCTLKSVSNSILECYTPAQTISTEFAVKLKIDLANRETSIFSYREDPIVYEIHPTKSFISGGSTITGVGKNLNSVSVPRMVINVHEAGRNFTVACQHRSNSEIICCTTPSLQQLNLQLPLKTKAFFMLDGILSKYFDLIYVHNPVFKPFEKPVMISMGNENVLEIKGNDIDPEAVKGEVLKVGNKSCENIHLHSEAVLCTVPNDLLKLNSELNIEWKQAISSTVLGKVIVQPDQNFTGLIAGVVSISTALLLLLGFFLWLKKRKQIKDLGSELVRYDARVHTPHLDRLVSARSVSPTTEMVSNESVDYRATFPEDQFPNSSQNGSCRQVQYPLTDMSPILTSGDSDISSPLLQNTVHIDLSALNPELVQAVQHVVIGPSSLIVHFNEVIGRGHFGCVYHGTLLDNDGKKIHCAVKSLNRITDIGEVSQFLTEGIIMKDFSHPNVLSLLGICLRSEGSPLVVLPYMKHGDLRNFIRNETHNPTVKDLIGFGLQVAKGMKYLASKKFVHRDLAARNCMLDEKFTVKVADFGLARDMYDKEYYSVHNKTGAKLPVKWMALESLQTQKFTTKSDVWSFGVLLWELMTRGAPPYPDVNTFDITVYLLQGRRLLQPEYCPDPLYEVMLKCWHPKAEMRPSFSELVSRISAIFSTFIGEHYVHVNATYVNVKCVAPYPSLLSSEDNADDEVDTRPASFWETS
The entries below are paired with their reported AVG CPM, 3H-thymidine incorporation in MKN45 cells, Ab 0.1 ng/mL.
Expressed in CPM, but write only the number.

* C8-co-16 (antibody, human IgG2, kappa, V domains shown, Named IgG4 kappa; also called C8-co-16 IgG4) VH: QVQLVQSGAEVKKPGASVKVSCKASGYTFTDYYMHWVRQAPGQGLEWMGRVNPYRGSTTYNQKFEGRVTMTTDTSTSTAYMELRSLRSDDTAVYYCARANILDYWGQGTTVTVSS VL: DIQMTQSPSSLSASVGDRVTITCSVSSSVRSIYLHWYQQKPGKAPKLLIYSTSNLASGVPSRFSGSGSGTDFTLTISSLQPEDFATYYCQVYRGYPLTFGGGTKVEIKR | 45700
* D11-C27G3 (antibody, human IgG2, kappa, V domains shown, Human engineered IgG2 kappa c-Met antibody; also called D11-27G3; D11-C27G3 IgG2) VH: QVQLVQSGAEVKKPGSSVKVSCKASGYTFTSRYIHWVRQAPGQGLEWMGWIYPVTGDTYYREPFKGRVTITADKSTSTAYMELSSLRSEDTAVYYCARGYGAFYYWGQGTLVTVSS VL: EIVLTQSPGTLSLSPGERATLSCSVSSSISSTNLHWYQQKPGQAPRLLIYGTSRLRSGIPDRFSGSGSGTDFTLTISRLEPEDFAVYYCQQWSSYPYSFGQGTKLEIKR | 41500
* D11-8B8 (antibody, human IgG2, kappa, V domains shown, Human engineered IgG2 kappa c-Met antibody; also called Mab D11-8B8; D11-8B8 IgG2) VH: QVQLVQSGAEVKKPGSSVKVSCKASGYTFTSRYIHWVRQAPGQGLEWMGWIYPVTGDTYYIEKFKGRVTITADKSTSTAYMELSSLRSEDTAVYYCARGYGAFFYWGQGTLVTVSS VL: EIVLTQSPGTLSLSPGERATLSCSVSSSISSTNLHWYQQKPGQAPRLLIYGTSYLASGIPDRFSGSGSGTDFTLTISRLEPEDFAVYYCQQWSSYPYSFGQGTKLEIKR | 41600
* D11-S17Y (antibody, human IgG2, kappa, V domains shown, Human engineered IgG2 kappa c-Met antibody; also called D11-S17Y IgG2) VH: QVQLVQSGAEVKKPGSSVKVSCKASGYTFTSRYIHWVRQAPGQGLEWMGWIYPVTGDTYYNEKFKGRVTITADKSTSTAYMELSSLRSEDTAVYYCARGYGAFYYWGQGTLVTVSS VL: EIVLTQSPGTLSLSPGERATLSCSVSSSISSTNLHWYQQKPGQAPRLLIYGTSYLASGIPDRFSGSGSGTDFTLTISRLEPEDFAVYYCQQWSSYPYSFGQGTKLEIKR | 44600

Here is another binder to look at.
Q: Provide one value: measured AVG CPM, 3H-thymidine incorporation in MKN45 cells, Ab 0.1 ng/mL of C8-6 (antibody, human IgG2, kappa, V domains shown, Named IgG4 kappa; also called C8-6 IgG4) VH: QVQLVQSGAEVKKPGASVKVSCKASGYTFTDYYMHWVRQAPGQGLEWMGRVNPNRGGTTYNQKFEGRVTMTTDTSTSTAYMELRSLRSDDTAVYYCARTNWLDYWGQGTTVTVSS VL: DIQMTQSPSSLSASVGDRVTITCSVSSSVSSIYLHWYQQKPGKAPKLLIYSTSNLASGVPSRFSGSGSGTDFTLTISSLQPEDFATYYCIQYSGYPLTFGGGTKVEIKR
A: 51700

Attribution: patent US20100129369A1
